conditions: 303.15 K; 20000 kPa; Liquid
measuredAttribute: mass density (kg/m3)
Numbers only, in kg/m3.

{"columns": ["molecule", "measuredAttribute", "observedResult"],
 "data": [
  ["CCCCCCCn1cc[n+](C)c1.O=S(=O)([N-]S(=O)(=O)C(F)(F)F)C(F)(F)F", "mass density", 1357],
  ["CCn1cc[n+](C)c1.O=S(=O)([N-]S(=O)(=O)C(F)(F)F)C(F)(F)F", "mass density", 1529],
  ["CCCCCCCCn1cc[n+](C)c1.O=S(=O)([N-]S(=O)(=O)C(F)(F)F)C(F)(F)F", "mass density", 1329]
]}

GET /values?readout=mass density&item= CCn1cc[n+](C)c1.F[B-](F)(F)F [1-ethyl-3-methylimidazolium tetrafluoroborate]
1305

###

Consider the following compounds; for each one, report its mass density.
settings: 313.15 K; 30000 kPa; Liquid
One number for each entry, in kg/m3.

Answered examples (3):
{"columns": ["compound", "observedResult"],
 "data": [
  ["CCCCCCCCn1cc[n+](C)c1.O=S(=O)([N-]S(=O)(=O)C(F)(F)F)C(F)(F)F", 1327],
  ["CCCCCCCn1cc[n+](C)c1.O=S(=O)([N-]S(=O)(=O)C(F)(F)F)C(F)(F)F", 1355],
  ["CCn1cc[n+](C)c1.F[B-](F)(F)F [1-ethyl-3-methylimidazolium tetrafluoroborate]", 1301]
]}

Which mass density reading was recorded for the compound CCn1cc[n+](C)c1.O=S(=O)([N-]S(=O)(=O)C(F)(F)F)C(F)(F)F ?
1526

###

details: 343.15 K; 20000 kPa; Liquid
measuredAttribute: mass density (kg/m3)
Give bare numbers, in kg/m3.

Provide mass density values for the following items, in order.
1. CCCCCCCCn1cc[n+](C)c1.O=S(=O)([N-]S(=O)(=O)C(F)(F)F)C(F)(F)F
2. CCn1cc[n+](C)c1.F[B-](F)(F)F [1-ethyl-3-methylimidazolium tetrafluoroborate]
3. CCCCCCCn1cc[n+](C)c1.O=S(=O)([N-]S(=O)(=O)C(F)(F)F)C(F)(F)F
4. CCn1cc[n+](C)c1.O=S(=O)([N-]S(=O)(=O)C(F)(F)F)C(F)(F)F

[1294, 1274, 1320, 1488]

###

conditions: 323.15 K; 2000 kPa; Liquid
measuredAttribute: mass density (kg/m3)
One number for each entry, in kg/m3.

{"columns": ["compound", "observedResult"],
 "data": [
  ["CCn1cc[n+](C)c1.F[B-](F)(F)F [1-ethyl-3-methylimidazolium tetrafluoroborate]", 1281],
  ["CCCCCCCn1cc[n+](C)c1.O=S(=O)([N-]S(=O)(=O)C(F)(F)F)C(F)(F)F", 1324],
  ["CCn1cc[n+](C)c1.O=S(=O)([N-]S(=O)(=O)C(F)(F)F)C(F)(F)F", 1494]
]}

From here, focus on the item given below.
What value of mass density has been recorded for this entry: CCCCCCCCn1cc[n+](C)c1.O=S(=O)([N-]S(=O)(=O)C(F)(F)F)C(F)(F)F
1297

###

Kindly state mass density for each of the entries shown.
settings: 393.15 K; 15000 kPa; Liquid
Numbers only, in kg/m3.

Study these solved cases before continuing.
{"columns": ["molecule", "unitsOfMeasure", "mass density"],
 "data": [
  ["CCn1cc[n+](C)c1.O=S(=O)([N-]S(=O)(=O)C(F)(F)F)C(F)(F)F", "kg/m3", 1438],
  ["CCCCCCCn1cc[n+](C)c1.O=S(=O)([N-]S(=O)(=O)C(F)(F)F)C(F)(F)F", "kg/m3", 1276],
  ["CCCCCCCCn1cc[n+](C)c1.O=S(=O)([N-]S(=O)(=O)C(F)(F)F)C(F)(F)F", "kg/m3", 1251]
]}

Proceeding to the next molecule to report its mass density.
Which mass density reading was recorded for the molecule CCn1cc[n+](C)c1.F[B-](F)(F)F [1-ethyl-3-methylimidazolium tetrafluoroborate] ?
1238

###

settings: 393.15 K; 7500 kPa; Liquid
Numbers after ± are expanded uncertainties.
measuredAttribute: mass density

For orientation, consider the following solved cases.
{"columns": ["molecule", "observedResult"],
 "data": [
  ["CCn1cc[n+](C)c1.O=S(=O)([N-]S(=O)(=O)C(F)(F)F)C(F)(F)F", "1431 ± 4 kg/m3"],
  ["CCCCCCCCn1cc[n+](C)c1.O=S(=O)([N-]S(=O)(=O)C(F)(F)F)C(F)(F)F", "1243 ± 3 kg/m3"],
  ["CCn1cc[n+](C)c1.F[B-](F)(F)F [1-ethyl-3-methylimidazolium tetrafluoroborate]", "1233 ± 3 kg/m3"]
]}

# query: mass density of entry CCCCCCCn1cc[n+](C)c1.O=S(=O)([N-]S(=O)(=O)C(F)(F)F)C(F)(F)F
1268 ± 3 kg/m3
